Give measured protein stability index for each item. Keep answers brief.
B1: KIAA0774 (parent)
chain: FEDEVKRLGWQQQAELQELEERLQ

Variants of: B1
Measurement notes: protein stability index of a GFP-peptide fusion (GPS, HEK-293T) (PSI 1-6); higher = more stable;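 also: lentivirally expressed fusions sorted by FACS into six bins by GFP to DsRed ratio, PSI derived from sequencing read proportions per bin multiplied by bin number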
Condition context: c terminus: a fixed tail appended

{"Monomer sequence": "FEDEVKRLGWQQQAELQELELRLQ", "protein stability index": 4.71}
{"Monomer sequence": "FEDEVKRLGWQQQAELQELEERQQ", "protein stability index": 4.05}

Hey, quick one: what's protein stability index for each of these?
1. FEDEVKRLCWQQQAELQELEERLQ
2. FEDEVKRLGWQQQAELRELEERLQ

Outgoing:
[3.36, 4.71]

Hey, quick one: what's protein stability index for each of these?
1. FEDEVKRLGWQQQAELQSLEERLQ
2. FELEVKRLGWQQQAELQELEERLQ
3. FEDEVKRLGWQQQAEFQELEERLQ

Outgoing:
4.7
2.95
4.15

Hey, quick one: what's protein stability index for each of these?
1. FEDEVKRLGWQQQIELQELEERLQ
2. FEDEVKRLGWYQQAELQELEERLQ
3. FEDEVKRLGWQQQAELQEIEERLQ
4. FEDEVKRLVWQQQAELQELEERLQ
5. FEDEVTRLGWQQQAELQELEERLQ
6. FEDEVKRLGWQQQAELQELMERLQ

Outgoing:
1. 1.73
2. 4.76
3. 4.27
4. 4.02
5. 4.31
6. 3.81

Hey, quick one: what's protein stability index for each of these?
1. FEDEVKRLGWQLQAELQELEERLQ
2. FEDEVKRLGWQQQAEAQELEERLQ

Outgoing:
1. 2.85
2. 4.34
